Target: Mature human IL-6 (human, UniProt P05231 30-212)
Sequence (P05231 30-212): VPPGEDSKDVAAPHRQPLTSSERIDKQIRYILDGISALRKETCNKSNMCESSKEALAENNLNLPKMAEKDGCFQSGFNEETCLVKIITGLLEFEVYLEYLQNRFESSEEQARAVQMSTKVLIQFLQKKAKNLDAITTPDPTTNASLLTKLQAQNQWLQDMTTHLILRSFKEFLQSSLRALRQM
Assay: cell-based or functional assay
measured-property: IC50, endogenous IL-6 induced synovial fibroblast VEGF release assay (nM)
# value in nM; strip the unit string

Check out these entries, answers already filled in.
Antibody 5 IgG (antibody, V domains shown, Non-germlined; IgG1 with human heavy chain and kappa constant domains; also called Ab 5) VH: EVQLVQSGGGLIQPGGSLRLSCAASGFTISSNYMIWVRQAPGKGLEWVSDLYYYAGDTYYADSVKGRFTMSRDISKNTVYLQMNSLRAEDTGVYYCARWADGHYYYADVWGRGTLVSVSS VL: DIVMTQSPPTLSASVGDRVTITCRASQGISSWLAWYQQKPGRAPKVLIYKASTLESGVPSRFSGSGSGTDFTLTISSLQPEDFASYYCQQSYSAPWTFGQGTKLEIKR | 0.7
Antibody 17 (GL) IgG (antibody, V domains shown) VH: EVQLVESGGGLVQPGGSLRLSCAASGFTISSNYMIWVRQAPGKGLEWVSDLYYYAGDTYYADSVKGRFTMSRDISKNTVYLQMNSLRAEDTAVYYCARWADDHPPYIDMWGRGTLVTVSS VL: DIQMTQSPSTLSASVGDRVTITCRASQGISSWLAWYQQKPGKAPKVLIYKASTLESGVPSRFSGSGSGTEFTLTISSLQPDDFATYYCQQSWLGGSFGQGTKLEIKR | 0.57
Antibody 2 IgG (antibody, V domains shown, Non-germlined; also called Ab 2) VH: EVQLVQSGGGLIQPGGSLRLSCAASGFTISSNYMTWVRQAPGKGLEWVSDLYYYAGDTYYADSVRGRFTMSRDISKNTVYLQMDSLRAEDTGVYYCARWADGHYYYIDVWGGGTLVTVSS VL: DIVMTQSPSTLSASVGDRVTITCRASQGISSWLTWYQQKPGRAPKVLIYKASTLESGVPSRFSGSGSGTDFTLTISSLQPEDFATYYCQQSYSAPWTFGQGTKLELKR | 0.59
Antibody 7 (GL) IgG (antibody, V domains shown, Germlined IgG1 with human kappa constant domain; also called Ab 7) VH: EVQLVESGGGLVQPGGSLRLSCAASGFTISSNYMIWVRQAPGKGLEWVSDLYYYAGDTYYADSVKGRFTMSRDISKNTVYLQMNSLRAEDTAVYYCARWADDHPAWVDLWGRGTLVTVSS VL: DIQMTQSPSTLSASVGDRVTITCRASQGISSWLAWYQQKPGKAPKVLIYKASTLESGVPSRFSGSGSGTEFTLTISSLQPDDFATYYCQQSWLGGSFGQGTKLEIKR | 0.75

Tell me the measured IC50, endogenous IL-6 induced synovial fibroblast VEGF release assay of Antibody 3 IgG (antibody, V domains shown, Non-germlined; IgG1 with human heavy chain and kappa constant domains; also called Ab 3) VH: QVQLVQSGGGLIQPGGSLRLSCAASGFTISSNYMVWVRQAPGKGLEWVSDLYYYAGDTYYADSVKGRFTVSRDISKNTVYLQMNSLRAEDTGVYYCARWADDHYYHIDVWGRGTLVTVSS VL: DIVMTQSPSTLSASVGDRVTITCRASQGISSWLAWYQQKPGRAPKALIYKASTLESGVPSRFSGSGSGTDFTLTISSLQPEDFATYYCQQSYSTPWTFGQGTKLEIKR , please.
0.38
